Hello, the source for this data is ChEMBL document CHEMBL1201862, in case you need it.

- Test system: TK-10
- TEST_DETAILS: NCI tumour cell line growth inhibition, 48 h
Activity calls are given as the source filed them. Cut-off read from the data, not from the text of the source: active = GI50 up to about 1.1 µM and inactive = higher.
Select the correct class. Options are active, inactive and nothing else.

Solved entries (count: 8):
- C[C@]12CC[C@@H]3c4cc(OCC(F)(F)F)c(O)cc4/C(=N/O)C[C@H]3[C@@H]1CC[C@@H]2O: inactive
- CCOc1ccc(/N=N/c2c(-c3ccccc3)nn(C(=O)CC(=O)Nc3ccccc3Cl)c2-c2ccccc2)cc1: inactive
- COc1c(O)c(OC)c2oc(-c3ccc(O)c(O)c3)c(OC)c(=O)c2c1O: inactive
- O=[N+]([O-])c1ccc2occ3c2c1CCC3: inactive
- CC1(C)C2CCC3=C(CCC4(C)C5C[C@](C)(C(=O)O)CC[C@]5(C)CC[C@]34C)[C@@]2(C)CC[C@@H]1O (stereo partly specified): inactive
- O=C1OC(Cl)C(N=P(c2ccccc2)(c2ccccc2)c2ccccc2)=C1Cl (stereo unspecified): inactive
- Cn1cccc1/C=C/c1cc(Br)c(/C=C/c2cccn2C)cc1Br: inactive
- S=C1NCCN1: inactive

IN: Please state the recorded outcome for this compound: O=C(O)CN1CCN2CCCCCN(CC1)CCN(CC(=O)O)CC2
OUT: inactive

IN: One more compound: O=[N+]([O-])c1ccc(S[C@@H]2[C@H]3c4c(-c5ccccc5)[nH]c(-c5ccccc5)c4[C@@H]2C[C@H]3Cl)cc1
OUT: inactive

IN: One more compound: COc1c(Cl)ccc(Cl)c1-c1nnc(-c2c(Cl)c(Cl)c(Cl)c(Cl)c2-c2nc3cc(C(=O)c4ccccc4)ccc3[nH]2)o1
OUT: inactive
